Experiment: yeast display, Sf9 membrane polyspecificity reagent, FACS + sequencing; frameworks hold sequencing errors
property: polyreactivity (PSR sort gate)

Below, each entry is followed by its recorded polyreactivity (PSR sort gate) result.
QVQLVESGGGLVQAGGSLRLSCAASGSIFVYYGMGWYRQAPGKERELFAAISSGGSTHYADSVKGRFTISRDNAKNTVYLQMNSLKPEDTAVYYCAADRFFWLRSYPRYYYWGQGTQVTVSS :: low polyreactivity
QVHLVESGGGLVQAGGSLRLSCAASGRTFCYNAMGWYRPAPGKERELVAAITSSGGGTSYADSVKGRFTISRDNAMNTVYLQMNSLKPEDTAVSYCARVRRYPLRYNYWGQGTQLTVSS :: high polyreactivity
QVQLVDSGGGLVQAGGSLRLSCAASGFNFDQYGLGWYRQAPGKERELVASITSTGSTYYADSVKGRFTISRDNAKNTVYLQMNSLKPEDTAVYYCATDSYDGMDYWGQGTQVTVSS :: low polyreactivity
QVQLVESGGGLDQAGGSLRLSCAASGFIFVYNVMGWYRQAPGKEREFVATITWRGVTTYYADSVKGRFTISRDNAKNTVYLQMNSLKPEDTAVYYCAVTVAYSYPRRSHYYWGQGTQVTVSS :: low polyreactivity
QVQLVESGVGLVQAGGSLSLSCAASGCTLRYYVMGWYRQAPGKERELVASISWSGDSTYYADSVKGRFTISRDNAKNTVYLQMNSLKPEDTAVYYCAARRWYVHYFAYGYWGQGTQVTVSS :: low polyreactivity
QVQLVESGGGLVQAGGSLRITCAASGYTFGAYSMGWYRQAPWKERELVAAITVRAGRTYYADSVKGRFTISRDNAKNTVYLQMNSLKPEDTAVYYCAADGYLLYVQHPNGRRYDYWGQGTQVTVSS :: low polyreactivity

Query: Please look up its polyreactivity (PSR sort gate): QVQLVESGGGLVQAGGRLSLSCAASGRTFYRYAMGWYRQAPGKDRELVAAISTRGGTTYYADSVKGRFTFSRDNAKNSVYLQMNSLKPEDTAVYYCAADSVYAEYDSWGQGTQVTVSS
Response: low polyreactivity

Query: # repeat for QVQLVESGGGLVQAGGSLRLSCAPSGFIFDGYTMGWYRQAPGKETELVAAITTSGTSTYYADSVKGRFTISRDNAKNTVYLQMNSLKPEDTAVYYCAARQYRHRVKYYYWGQGTQVTVSS
Response: high polyreactivity

Query: Same question for QVQLVESGGGLVQAGGSLRLSCAASGLTFYYYAMGWSRQAPGKERELVAAISRSGGSTYYADSVKGRFTISRDNAKNTVYLQINSLKPEDTAVYYCAAREPYEGQRYYYEYYYWGQGTQVTVSS please.
Response: high polyreactivity

Query: Same lookup for QVQLQESGGGLVQAGGSLRLSCAASGNIVDADIMGWYRQAPGKERELVASITDGGSTNYADSEKGRFTICRDNAKNTVYLQMNSVKPEDTAVYYCAAMAYPDIPTSFDYDSEYFYWGQGTQVKVSS , please.
Response: low polyreactivity

Query: // next record QVQLVESGGGLVQAGGSLRLSCAASGRIISSNAMGWYRQAPGKEREFVAAISWRTGSTYYADSVKGRFTISRDNAKNTVYLQMNILKPEDTAVYYCNKRNGSYCYPYYYWGQGTQVTVSS
Response: high polyreactivity

###

Experiment: yeast display, Sf9 membrane polyspecificity reagent, FACS + sequencing; frameworks hold sequencing errors
property: polyreactivity (PSR sort gate)

Previously resolved entries follow.
QVQLVESGGALVQAGGRLRLSCAASGRTFRAYAMGWYRQAPGKERELVAAITSGGSTYYADSVKGRFTISRDNAKNTVYLQMNSLKPEDTEVYYCNRRGWSRTHQYDYWGQGTQVTVSS :: high polyreactivity
QVQVVESGGGLVQAGGSLRLSCAASGFTFILYAMGWYRQAPGKERELVAAISWSGGRTYYADSVKGRFTISRDNAKNTVYLQMNSLKPEDTAVYYCNAPYWTSKSRFDYWGQGTQVTVSS :: low polyreactivity
QVQVVDSGGGLVQAGGSLRLSCAASGLTIVKNVMGWYRQAPGKERELVAAISRRGGSTYYADSVKGRFTISRDNAKNTVYLQMNSLKPEDTAVYYCNAVLNQLSYIYPAVGYWGQGTQVTVSS :: high polyreactivity
QVQLVESWGGLVQAGGSLRLSCAASGRTFDRYDMGWYRQAPGKERELVATISSSGGSTYYADSVKGRFTISRDNAKNTVYLQMNSLKPEDTAVYYCAADPSGDYWGQGTQVTVSS :: low polyreactivity
QFQLVESGGGLVQAGGSLRLSCAASGRILYPNTMGWYRQAPGKEREVVAAISGSGSRTYYADSVKGRFTISRDNAKNNVYLQMNSLKPEDTAVYYCADRGDGTVGVSSPGKRRHYYWGQGTQVTVSS :: high polyreactivity

Query: Give its polyreactivity (PSR sort gate) value. Item: QVQLVESVGGLVQAGGSLRLSCAASGITFYGYTMGWYIQAPGKERELVAAITSGGITYYADSVKGRFTISRDNAKNTVYLQMNSLKPEDTAVYYCAARRYCYTSITWYDYWGQGTQVTVSS
Response: high polyreactivity

Query: # repeat for QVQLVESGGGLVQAGGSLRLICAASGITFLQYARGWYRQATGKERELVAVISRGSRTYYADSVKGRFTISRDNAKNTFYLQMNSLKPEDTAVYYCAAVRGLAVGYDYWGQGTQVTVSS
Response: high polyreactivity

Query: // same read-out, input: QVQLVESGGGLVQAGGSLRLSCAASGRTFFQYAMGWYRQAPGKERELVATIRSGGSTYYADSVKGRFTISRDNAKNTVYLQMNSLKPEDTAVYYCATRYTRFRHFDYWGQGTQVTVSS
Response: low polyreactivity

Query: # iterate: QVQLVESGGGLVQAGGSLRLSCAASGYIFFTNAMGWYRQAPGKERELVAAISTIDGSTYYADSVKGRFTISRDNAKNTVYLQMNSLKPEDTAVYYCATDTPFISSLAYDYWGQGTQVTVSS
Response: low polyreactivity

Query: Next entry: QVQLVDSGGGLVQAGGSLRLSCAASGSTFLYYSMGWYTQAPGKERELVAVISWSGVSTYYADSVKGRFTISRDNAKNSVYLQMNSLKPEDTAVYYCNTGNHYIRTYGYWGQGTQVTVSW
Response: low polyreactivity

Query: And QFQLVESGGGLVQAGGSLRLSCAASVLTFSAYAMGWYRQAPGKEREFVAAITDSDGSTYYADYVKGRFTISRDNEKNTVYLQMNSLKPEDTAVYYCAASGSWYYGYWSGGYDYWGQGTQVTVSS ?
Response: low polyreactivity
